Each entry below lists one item and its recorded MIC S. aureus value.
tested on: Staphylococcus aureus ATCC25923; assay type: cell-based; conditions: ATCC25923
Residues, ends and D or L forms follow the SMILES beside them.
Supply the numeric figure in µg/mL, leaving out any unit text.

Query: Provide value of MIC S. aureus for this record tested with Staphylococcus aureus ATCC25923: CC[C@H](C)[C@H](NC(=O)[C@H](CCCNC(=N)N)NC(=O)[C@H](Cc1c[nH]c2ccccc12)NC(=O)[C@H](CCCNC(=N)N)NC(=O)[C@@H](N)CCCCN)C(=O)N[C@@H](CCCNC(=N)N)C(=O)N[C@H](C(=O)N[C@@H](CCCNC(=N)N)C(=O)N[C@H](C(=O)N[C@H](C(=O)N[C@@H](CCCNC(=N)N)C(=O)N[C@@H](CCCCN)C(N)=O)[C@@H](C)CC)C(C)C)C(C)C [HH16, KRWRIRVRVIRK] (H-KRWRIRVRVIRK-NH2)
Result: 3

Query: Provide value of MIC S. aureus for this record tested with Staphylococcus aureus ATCC25923: CC[C@H](C)[C@H](N)C(=O)N[C@@H](CC(C)C)C(=O)N1CCC[C@H]1C(=O)N[C@@H](Cc1c[nH]c2ccccc12)C(=O)N[C@@H](CCCCN)C(=O)N[C@@H](Cc1c[nH]c2ccccc12)C(=O)N[C@@H](CCCNC(=N)N)C(=O)N[C@@H](Cc1c[nH]c2ccccc12)C(=O)N[C@@H](Cc1c[nH]c2ccccc12)C(=O)N[C@@H](CCCCN)C(=O)N[C@@H](Cc1c[nH]c2ccccc12)C(=O)N[C@@H](CCCNC(=N)N)C(=O)N[C@@H](CCCNC(=N)N)C(N)=O [HH971, ILPWKWRWWKWRR] (H-ILPWKWRWWKWRR-NH2; N-terminus assumed)
Result: 8

Query: Provide value of MIC S. aureus for this record tested with Staphylococcus aureus ATCC25923: CC[C@H](C)[C@H](NC(=O)[C@H](CCCNC(=N)N)NC(=O)[C@H](C)NC(=O)[C@H](CC(C)C)NC(=O)[C@@H](N)CCCNC(=N)N)C(=O)N[C@H](C(=O)N[C@H](C(=O)N[C@H](C(=O)N[C@@H](CCCNC(=N)N)C(=O)N[C@H](C(=O)N[C@@H](C)C(=O)N[C@@H](CCCNC(=N)N)C(N)=O)C(C)C)[C@@H](C)CC)C(C)C)C(C)C [Bac2A, RLARIVVIRVAR-NH2, reference compound] (H-RLARIVVIRVAR-NH2; N-terminus assumed)
Result: 17

Query: Provide value of MIC S. aureus for this record tested with Staphylococcus aureus ATCC25923: CC(C)C[C@H](NC(=O)[C@@H](N)Cc1ccccc1)C(=O)N1CCC[C@H]1C(=O)N[C@@H](CCCCN)C(=O)N[C@@H](CCCCN)C(=O)N[C@@H](Cc1ccccc1)C(=O)N[C@@H](CCCNC(=N)N)C(=O)N[C@@H](Cc1c[nH]c2ccccc12)C(=O)N[C@@H](Cc1c[nH]c2ccccc12)C(=O)N[C@@H](CCCCN)C(=O)N[C@@H](Cc1ccc(O)cc1)C(=O)N[C@@H](CCCNC(=N)N)C(=O)N[C@@H](CCCCN)C(N)=O [HH972, FLPKKFRWWKYRK] (H-FLPKKFRWWKYRK-NH2; N-terminus assumed)
Result: 31

Query: Provide value of MIC S. aureus for this record tested with Staphylococcus aureus ATCC25923: CC[C@H](C)[C@H](NC(=O)[C@H](CCCNC(=N)N)NC(=O)[C@H](CC(C)C)NC(=O)[C@H](CCCNC(=N)N)NC(=O)[C@@H](N)C(C)C)C(=O)N[C@@H](CCCNC(=N)N)C(=O)N[C@H](C(=O)N[C@@H](Cc1c[nH]c2ccccc12)C(=O)N[C@H](C(=O)N[C@H](C(=O)N[C@@H](CCCNC(=N)N)C(=O)N[C@@H](C)C(N)=O)[C@@H](C)CC)C(C)C)C(C)C [HH6, VRLRIRVWVIRA] (H-VRLRIRVWVIRA-NH2)
Result: 6
